# TESTED_ON: Adenosine receptor A3 (Homo sapiens)
# Sequence (P0DMS8 whole entry): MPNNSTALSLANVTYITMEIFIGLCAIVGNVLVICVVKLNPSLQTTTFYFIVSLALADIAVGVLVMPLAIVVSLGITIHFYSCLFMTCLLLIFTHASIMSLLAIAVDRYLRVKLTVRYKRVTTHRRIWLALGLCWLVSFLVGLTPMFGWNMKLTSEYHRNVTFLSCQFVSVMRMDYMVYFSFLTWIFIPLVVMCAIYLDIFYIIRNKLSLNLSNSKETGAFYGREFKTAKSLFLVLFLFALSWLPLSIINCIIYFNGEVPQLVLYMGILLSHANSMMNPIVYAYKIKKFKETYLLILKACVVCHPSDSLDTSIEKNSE
MEASURED_METRIC: AC50

MOLECULE: CCC(=O)O[C@H](CC(=O)O)C[N+](C)(C)C [LEVOCARNITINE PROPIONATE]
TESTED_ON: Adenosine receptor A3 (Homo sapiens)
TEST_RESULT: > 30 µM
//
MOLECULE: CN(C)CCOC(c1ccc(Cl)cc1)c1ccccn1 (configuration not stated) [CARBINOXAMINE]
TESTED_ON: Adenosine receptor A3 (Homo sapiens)
TEST_RESULT: > 30 µM
//
MOLECULE: Oc1cc(O)c2c(c1)O[C@H](c1ccc(O)c(O)c1)[C@@H](O)C2 [CIANIDANOL]
TESTED_ON: Adenosine receptor A3 (Homo sapiens)
TEST_RESULT: 22.2 µM
//
MOLECULE: C=C(c1ccccc1OCc1cccc(Cl)c1)n1ccnc1 [CROCONAZOLE]
TESTED_ON: Adenosine receptor A3 (Homo sapiens)
TEST_RESULT: 11.5 µM
//
MOLECULE: N[C@@H](Cc1cc(I)c(Oc2cc(I)c(O)c(I)c2)c(I)c1)C(=O)O [LEVOTHYROXINE]
TESTED_ON: Adenosine receptor A3 (Homo sapiens)
TEST_RESULT: 11 µM

# query: AC50 | item CC(=O)Oc1ccccc1C(=O)O [ASPIRIN] | system: Adenosine receptor A3 (Homo sapiens); note: assay procedure not described here
> 30 µM

Write down the reported AC50 of CC(=O)OCC1=C(C(=O)O)N2C(=O)[C@@H](NC(=O)CSc3ccncc3)[C@H]2SC1 [CEPHAPIRIN] , test system: Adenosine receptor A3 (Homo sapiens). Note: assay procedure not described here.
> 10 µM

Form field - read-out: AC50; system: Adenosine receptor A3 (Homo sapiens); submitted item: Nc1nnc(-c2cccc(Cl)c2Cl)c(N)n1 [LAMOTRIGINE]; note: assay procedure not described here
> 30 µM

So what AC50 did COC(=O)[C@H]1[C@H]2C[C@@H]3c4[nH]c5ccccc5c4CCN3C[C@H]2C[C@@H](OC(=O)c2cc(OC)c(OC)c(OC)c2)[C@@H]1OC [DESERPIDINE] get with Adenosine receptor A3 (Homo sapiens)?
15.8 µM

Lab note: need AC50 for COc1nc(C)nc(Cl)c1N=C1NCCN1 [MOXONIDINE] on Adenosine receptor A3 (Homo sapiens), anyone have it?
> 30 µM

Record CCc1ccc(C(=O)C(C)CN2CCCCC2)cc1 (configuration not stated) [EPERISONE] : what is its AC50 with Adenosine receptor A3 (Homo sapiens)?
> 30 µM

I'm curious: which AC50 was measured for CN1C2CCCC1CC(NC(=O)c1nn(C)c3ccccc13)C2 (configuration not stated) [GRANISETRON] tested on Adenosine receptor A3 (Homo sapiens)?; note: assay procedure not described here
> 30 µM

Form: Entry = CC(C(=O)O)c1ccc(C(=O)c2ccccc2)s1 (configuration not stated) [TIAPROFENIC ACID] | System = Adenosine receptor A3 (Homo sapiens) | AC50 = ____; note: assay procedure not described here
> 10 µM
